test_description: Biodistribution study in LNCaP tumor-bearing mice (Th227 counted in organs)
Format: in vivo, SCID mice
experimental_setup: 24 h; 1500 kBq/kg
Reported Th-227 in salivary glands values follow for various molecules
Entry rule: numbers only, all in % ID Th-227/g organ.

These recorded examples may help you get a feel for the data.
O=C([O-])CN1CCN(CC(=O)[O-])CCN(CC(=O)NCC2CCC(C(=O)NC(Cc3ccc4ccccc4c3)C(=O)NCCCCC(NC(=O)NC(CCC(=O)O)C(=O)O)C(=O)O)CC2)CCN(CC(=O)[O-])CC1.[227Th+4] [Example 1-B-D-227Th] | 0.09
Cc1cc(C(=O)NCCN(CCCN(CCNC(=O)c2cc(C)n(CC(=O)O)c(=O)c2[O-])CCNC(=O)c2cc(C)n(CC(=O)NCC3CCC(C(=O)NC(Cc4cnc5ccccc5c4)C(=O)NCCCCC(NC(=O)NC(CCC(=O)O)C(=O)O)C(=O)O)CC3)c(=O)c2[O-])CCNC(=O)c2cc(C)n(CC(=O)NCC3CCC(C(=O)NC(Cc4cnc5ccccc5c4)C(=O)NCCCCC(NC(=O)NC(CCC(=O)O)C(=O)O)C(=O)O)CC3)c(=O)c2[O-])c([O-])c(=O)n1CC(=O)O.[227Th+4] (stereo not shown) [Example 22-C dimer-227Th] | 0.18
O=C([O-])CN1CCN(CC(=O)[O-])CCN(CC(=O)NCC2CCC(C(=O)NC(Cc3ccc4ccccc4c3)C(=O)NCCCCC(NC(=O)NC(CCC(=O)O)C(=O)O)C(=O)O)CC2)CCN(CC(=O)[O-])CC1.[227Th+4] (stereo not shown) [Example 1-B-227Th] | 0.32

Switching to the query record.
### Prompt Please list Th-227 in salivary glands recorded for the molecule O=C([O-])CN1CCN(CC(=O)[O-])CCN(CC(=O)NCc2ccc(C(=O)N[C@@H](Cc3ccc4ccccc4n3)C(=O)NCCCC[C@H](NC(=O)N[C@@H](CCC(=O)O)C(=O)O)C(=O)O)nc2)CCN(CC(=O)[O-])CC1.[227Th+4] [Example 34-B-227Th]
### Response 0.11

----------
test_description: Biodistribution study in LNCaP tumor-bearing mice (Th227 counted in organs)
Assay type: in vivo, SCID mice
experimental_setup: 96 h; 1500 kBq/kg
observation_type: Th-227 in salivary glands (% ID Th-227/g organ)
Entry rule: numbers only, all in % ID Th-227/g organ.

O=C([O-])CN1CCN(CC(=O)[O-])CCN(CC(=O)NCC2CCC(C(=O)NC(Cc3ccc4ccccc4c3)C(=O)NCCCCC(NC(=O)NC(CCC(=O)O)C(=O)O)C(=O)O)CC2)CCN(CC(=O)[O-])CC1.[227Th+4] (stereo not shown) [Example 1-B-227Th] | 0.42
O=C([O-])CN1CCN(CC(=O)[O-])CCN(CC(=O)NCc2ccc(C(=O)N[C@@H](Cc3ccc4ccccc4n3)C(=O)NCCCC[C@H](NC(=O)N[C@@H](CCC(=O)O)C(=O)O)C(=O)O)nc2)CCN(CC(=O)[O-])CC1.[227Th+4] [Example 34-B-227Th] | 0.10
O=C([O-])CN1CCN(CC(=O)[O-])CCN(CC(=O)NCC2CCC(C(=O)NC(Cc3ccc4ccccc4c3)C(=O)NCCCCC(NC(=O)NC(CCC(=O)O)C(=O)O)C(=O)O)CC2)CCN(CC(=O)[O-])CC1.[227Th+4] [Example 1-B-D-227Th] | 0.13

Switching to the query record.
### Prompt Please list Th-227 in salivary glands recorded for the molecule Cc1cc(C(=O)NCCN(CCCN(CCNC(=O)c2cc(C)n(CC(=O)O)c(=O)c2[O-])CCNC(=O)c2cc(C)n(CC(=O)NCC3CCC(C(=O)NC(Cc4cnc5ccccc5c4)C(=O)NCCCCC(NC(=O)NC(CCC(=O)O)C(=O)O)C(=O)O)CC3)c(=O)c2[O-])CCNC(=O)c2cc(C)n(CC(=O)NCC3CCC(C(=O)NC(Cc4cnc5ccccc5c4)C(=O)NCCCCC(NC(=O)NC(CCC(=O)O)C(=O)O)C(=O)O)CC3)c(=O)c2[O-])c([O-])c(=O)n1CC(=O)O.[227Th+4] (stereo not shown) [Example 22-C dimer-227Th]
### Response 0.19

----------
target_of_assay: PSMA-expressing LNCaP cells (Homo sapiens, UniProt Q04609)
Construct: PSMA-expressing LNCaP cells; endogenous in cells; host or cells: LNCaP
Sequence (Q04609 whole entry): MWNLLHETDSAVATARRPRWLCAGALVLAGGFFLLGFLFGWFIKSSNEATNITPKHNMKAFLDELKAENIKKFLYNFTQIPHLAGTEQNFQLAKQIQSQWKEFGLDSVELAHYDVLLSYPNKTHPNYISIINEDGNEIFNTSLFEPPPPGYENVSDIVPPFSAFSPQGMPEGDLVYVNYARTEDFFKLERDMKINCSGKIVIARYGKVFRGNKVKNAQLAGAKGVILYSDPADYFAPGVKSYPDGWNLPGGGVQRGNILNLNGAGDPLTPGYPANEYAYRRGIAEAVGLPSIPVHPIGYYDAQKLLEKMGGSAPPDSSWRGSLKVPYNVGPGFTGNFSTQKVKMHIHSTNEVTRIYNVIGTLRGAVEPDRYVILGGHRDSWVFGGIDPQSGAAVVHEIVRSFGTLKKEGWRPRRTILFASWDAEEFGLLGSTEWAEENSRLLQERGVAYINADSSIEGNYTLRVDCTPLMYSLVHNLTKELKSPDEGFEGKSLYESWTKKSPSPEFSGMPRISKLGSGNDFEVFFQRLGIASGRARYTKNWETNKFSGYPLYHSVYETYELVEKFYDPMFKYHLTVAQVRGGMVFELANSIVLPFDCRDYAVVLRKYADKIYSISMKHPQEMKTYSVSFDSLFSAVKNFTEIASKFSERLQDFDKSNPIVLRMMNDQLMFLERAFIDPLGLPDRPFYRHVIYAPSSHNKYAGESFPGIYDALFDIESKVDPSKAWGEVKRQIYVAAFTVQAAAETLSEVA
test_description: Internalization assay (membrane bound and internalized Th-227)
Type: cell-based
experimental_setup: 10 nM radiolabeled compound, Th-227 at 375 kBq/nmol; 2 h incubation; triplicates
Reported Membrane bound in LNCaP fmol/10^6 cells 2 h values follow for various compounds
Entry rule: numbers only, all in fmol/10^6 cells.

These recorded examples may help you get a feel for the data.
CC1=CC2=C3[O][227Th-5]45678([O]C9=C(C=C(C)N(CC(=O)O)C9=[O+]4)C(=O)NCCN(CCCN(CCNC(=O)C4=C([O]5)C(=[O+]6)N(CC(=O)O)C(C)=C4)CCNC(=O)C4=C([OH+]7)C(=[O+]8)N(CC(=O)NC[C@H]5CC[C@H](C(=O)N[C@@H](Cc6ccc7ccccc7c6)C(=O)NCCCC[C@H](NC(=O)N[C@@H](CCC(=O)O)C(=O)O)C(=O)O)CC5)C(C)=C4)CCNC2=O)[O+]=C3N1CC(=O)O [1-C monomer-227Th] | 260
Cc1cc2c(c(=O)n1CC(=O)O)[O][227Th]13[O]c4c(cc(C)n(CC(=O)O)c4=O)C(=O)NCCN(CCCN(CCNC(=O)c4cc(C)n(CC(=O)O)c(=O)c4[O]1)CCNC(=O)c1cc(C)n(CC(=O)NCc4ccc(C(=O)N[C@@H](Cc5ccc6ccccc6n5)C(=O)NCCCC[C@H](NC(=O)N[C@@H](CCC(=O)O)C(=O)O)C(=O)O)nc4)c(=O)c1[O]3)CCNC2=O [34-C monomer-227Th] | 359

### Prompt Please list Membrane bound in LNCaP fmol/10^6 cells 2 h recorded for the compound O=C([O-])CN1CCN(CC(=O)[O-])CCN(CC(=O)NCC2CCC(C(=O)NC(Cc3ccc4ccccc4c3)C(=O)NCCCCC(NC(=O)NC(CCC(=O)O)C(=O)O)C(=O)O)CC2)CCN(CC(=O)[O-])CC1.[227Th+4] (stereo not drawn) [Example 1-B-227Th]
### Response 438

----------
test_description: Biodistribution study in LNCaP tumor-bearing mice (Th227 counted in organs)
Format: in vivo, SCID mice
experimental_setup: 24 h; 1500 kBq/kg
observation_type: Th-227 in lung (% ID Th-227/g organ)
Entry rule: numbers only, all in % ID Th-227/g organ.

These recorded examples may help you get a feel for the data.
O=C([O-])CN1CCN(CC(=O)[O-])CCN(CC(=O)NCc2ccc(C(=O)N[C@@H](Cc3ccc4ccccc4n3)C(=O)NCCCC[C@H](NC(=O)N[C@@H](CCC(=O)O)C(=O)O)C(=O)O)nc2)CCN(CC(=O)[O-])CC1.[227Th+4] [Example 34-B-227Th] | 0.27
O=C([O-])CN1CCN(CC(=O)[O-])CCN(CC(=O)NCC2CCC(C(=O)NC(Cc3ccc4ccccc4c3)C(=O)NCCCCC(NC(=O)NC(CCC(=O)O)C(=O)O)C(=O)O)CC2)CCN(CC(=O)[O-])CC1.[227Th+4] [Example 1-B-D-227Th] | 0.16
O=C([O-])CN1CCN(CC(=O)[O-])CCN(CC(=O)NCC2CCC(C(=O)NC(Cc3ccc4ccccc4c3)C(=O)NCCCCC(NC(=O)NC(CCC(=O)O)C(=O)O)C(=O)O)CC2)CCN(CC(=O)[O-])CC1.[227Th+4] (stereo not shown) [Example 1-B-227Th] | 0.50

### Prompt Please list Th-227 in lung recorded for the molecule Cc1cc(C(=O)NCCN(CCCN(CCNC(=O)c2cc(C)n(CC(=O)O)c(=O)c2[O-])CCNC(=O)c2cc(C)n(CC(=O)NCC3CCC(C(=O)NC(Cc4cnc5ccccc5c4)C(=O)NCCCCC(NC(=O)NC(CCC(=O)O)C(=O)O)C(=O)O)CC3)c(=O)c2[O-])CCNC(=O)c2cc(C)n(CC(=O)NCC3CCC(C(=O)NC(Cc4cnc5ccccc5c4)C(=O)NCCCCC(NC(=O)NC(CCC(=O)O)C(=O)O)C(=O)O)CC3)c(=O)c2[O-])c([O-])c(=O)n1CC(=O)O.[227Th+4] (stereo not shown) [Example 22-C dimer-227Th]
### Response 0.25

----------
target_of_assay: PSMA-expressing LNCaP cells (Homo sapiens, UniProt Q04609)
Construct: PSMA-expressing LNCaP cells; endogenous in cells; host or cells: LNCaP
test_description: Binding competition assay against 3H-PSMA-617 on LNCaP cells
experimental_setup: LNCaP cells; 10 nM 3H-PSMA-617; competing non-radiolabeled compound 100 nM; 2 h at 37° C.; triplicates
Reported remaining activity at 0.1 µM values follow for various compounds
Entry rule: numbers only, all in %.

O=C(O)CC[C@H](NC(=O)N[C@@H](CCCCNC(=O)[C@H](Cc1ccc2ccccc2c1)NC(=O)Cn1ccc(-c2ccc(NC(=O)CN3CCN(CC(=O)O)CCN(CC(=O)O)CCN(CC(=O)O)CC3)cc2)n1)C(=O)O)C(=O)O [Example 28-B] | 90

### Prompt Lab note: record remaining activity at 0.1 µM of CC(C)(C)c1ccc(C[C@H](NC(=O)[C@H]2CC[C@H](CN)CC2)C(=O)NCCCC[C@H](NC(=O)N[C@@H](CCC(=O)O)C(=O)O)C(=O)O)cc1 [Example 8-A] tested on PSMA-expressing LNCaP cells (Homo sapiens, UniProt Q04609).
### Response 111
